Numbers sourced from patent US9637469B2.

- TARGET: human URAT1 (Homo sapiens)
- Construct: Full-length cDNA of human URAT1 (hURAT1)
- EXPERIMENT_SUMMARY: Test for inhibition of uric acid transport using human URAT1-expressing cells;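 further: three stars up to 0.2 µM two stars 0.2-2 µM one star 2-20 µM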
- Type: cell-based
- APPLIED_CONDITIONS: HEK 293 cells expressing human URAT1; 14C-labeled uric acid 25 μM; uptake 37° C. for 5 min
- Protocol: (1) Preparation of the Test Compound The test compound was dissolved in DMSO (produced by Sigma) to a concentration of 20 mM and was subsequently used by diluting to desired concentrations. (2) Test for Inhibition of Uric Acid Transport Using Human URAT1-Expressing Cells […]
RESULT_TYPE: Inhibitory Activity (IC50 of uric acid transport inhibition)

SMILES_ENTRY	MEASURED_RESULT
Cc1ccc(C)c(Cn2c(-c3cccnc3)nc(C)c2C(=O)O)c1	* *
Cc1ccc(Cl)c(Cn2c(-c3cncc(Cl)c3)nc(C)c2C(=O)O)c1	* * *
O=C(NS(=O)(=O)C1CC1)c1ccc(-c2cncc(Cl)c2)n1Cc1cc(Cl)ccc1Cl	* * *
Cc1nc(Oc2cccnc2Cl)n(Cc2cc(Cl)ccc2Cl)c1C(=O)O	* * *
Cc1nc(-c2cncc(OC(C)C)c2)n(Cc2cc(Cl)ccc2Cl)c1C(=O)O	* *
CC(C)c1nc(-c2cccnc2)n(Cc2csc3ccccc23)c1C(=O)O	* *
O=C(O)c1c(C2CC2)nc(-c2cccnc2)n1Cc1csc2ccccc12	* *
Cc1nc(-c2cncc(Br)c2)n(Cc2cc(Cl)ccc2Cl)c1C(=O)O	* * *
O=C(O)c1ccc(-c2cccnc2)n1Cc1cccc2ccccc12	* * *
CC(C)c1nc(-c2cccnc2)n(Cc2cc(Cl)ccc2Cl)c1C(=O)O	* * *
Cc1cncc(-c2nc(C(C)(C)O)c(C(=O)O)n2Cc2cc(Cl)ccc2Cl)c1	* * *
CC(C)(O)c1nc(-c2cncc(Cl)c2)n(Cc2cc(Cl)ccc2Cl)c1C(=O)O	* * *
CC(C)c1nc(-c2cccnc2)n(Cc2csc3cccc(Cl)c23)c1C(=O)O	* * *
O=C(O)c1c(C(F)(F)F)nc(-c2cccnc2)n1Cc1csc2cccc(Cl)c12	* *
Cc1nc(-c2cncc(OCC(C)C)c2)n(Cc2cc(Cl)ccc2Cl)c1C(=O)O	* * *
CC(=O)c1cncc(-c2nc(C)c(C(=O)O)n2Cc2cc(Cl)ccc2Cl)c1	* * *
CN(C)Cc1nc(-c2cncc(Cl)c2)n(Cc2cc(Cl)ccc2Cl)c1C(=O)O	* *
CCC(O)(CC)c1nc(-c2cncc(F)c2)n(Cc2cc(Cl)ccc2Cl)c1C(=O)O	* * *
CC(C)(O)c1nc(-c2cccnc2)n(Cc2cc(Cl)ccc2Cl)c1C(=O)O	* * *
Cc1nc(Oc2cncc(Cl)c2)n(Cc2cc(Cl)ccc2Cl)c1C(=O)O	* * *
CS(=O)(=O)N1CCN(Cc2nc(-c3cncc(Cl)c3)n(Cc3cc(Cl)ccc3Cl)c2C(=O)O)CC1	* *
CCN(CC)Cc1nc(-c2cncc(Cl)c2)n(Cc2cc(Cl)ccc2Cl)c1C(=O)O	* * *
CC(C)c1nc(-c2cncc(Cl)c2)n(Cc2cccc3ccccc23)c1C(=O)O	* * *
Cc1nc(-c2cncc(C(F)(F)F)c2)n(Cc2cc(Cl)ccc2Cl)c1C(=O)O	* * *

----------
- TARGET: human URAT1 (Homo sapiens, UniProt Q96S37)
- Construct: Full-length cDNA of human URAT1 (hURAT1)
- Sequence (Q96S37 1-553): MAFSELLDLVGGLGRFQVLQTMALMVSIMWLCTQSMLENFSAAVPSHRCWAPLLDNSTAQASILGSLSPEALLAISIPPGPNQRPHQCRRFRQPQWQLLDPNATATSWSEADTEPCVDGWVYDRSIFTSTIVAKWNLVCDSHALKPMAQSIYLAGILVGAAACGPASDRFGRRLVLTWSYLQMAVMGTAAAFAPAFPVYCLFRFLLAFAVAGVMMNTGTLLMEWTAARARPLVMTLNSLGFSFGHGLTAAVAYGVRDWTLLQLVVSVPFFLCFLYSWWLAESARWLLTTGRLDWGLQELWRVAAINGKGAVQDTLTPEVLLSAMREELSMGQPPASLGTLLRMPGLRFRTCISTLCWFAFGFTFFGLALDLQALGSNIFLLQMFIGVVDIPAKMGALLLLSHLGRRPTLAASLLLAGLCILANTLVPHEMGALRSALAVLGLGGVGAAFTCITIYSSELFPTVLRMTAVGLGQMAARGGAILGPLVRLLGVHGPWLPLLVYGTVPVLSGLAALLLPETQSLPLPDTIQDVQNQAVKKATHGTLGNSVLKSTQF
- EXPERIMENT_SUMMARY: Test for inhibition of uric acid transport using human URAT1-expressing cells;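 further: three stars up to 0.2 µM two stars 0.2-2 µM one star 2-20 µM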
- Format: cell-based
- APPLIED_CONDITIONS: HEK 293 cells expressing human URAT1; 14C-labeled uric acid 25 μM; uptake 37° C. for 5 min
RESULT_TYPE: Inhibitory Activity (IC50 of uric acid transport inhibition)

COMPOUND	TARGET	MEASURED_RESULT
O=C(O)c1c(C2CC2)nc(-c2cccnc2)n1Cc1csc2cccc(C(F)(F)F)c12 [Compound A35]	human URAT1 (Homo sapiens, UniProt Q96S37)	* *
CC(C)c1nc(-c2cncc(F)c2)n(Cc2cccc3ccccc23)c1C(=O)O [Compound A152]	human URAT1 (Homo sapiens, UniProt Q96S37)	* *
Cc1nc(-c2cccnc2)n(Cc2cc(C(F)(F)F)ccc2Cl)c1C(=O)O [Compound A43]	human URAT1 (Homo sapiens, UniProt Q96S37)	* * *
CC(=O)c1nc(-c2cncc(Cl)c2)n(Cc2cc(Cl)ccc2Cl)c1C(=O)O [Compound A218]	human URAT1 (Homo sapiens, UniProt Q96S37)	* * *
CCCOc1cncc(-c2nc(C)c(C(=O)O)n2Cc2cc(Cl)ccc2Cl)c1 [Compound A185]	human URAT1 (Homo sapiens, UniProt Q96S37)	* * *
O=C(O)c1cnc(-c2cncc(F)c2)n1Cc1cc(Cl)ccc1Cl [Compound A171]	human URAT1 (Homo sapiens, UniProt Q96S37)	* * *
Cc1nc(-c2cccnc2)n(Cc2cc(F)ccc2Cl)c1C(=O)O [Compound A41]	human URAT1 (Homo sapiens, UniProt Q96S37)	* *
